# Tested on: Pseudomonas aeruginosa
# method_notes: Antimicrobial activity against Pseudomonas aeruginosa at 50 ug/ml by agar diffusion assay
# Assay type: functional
parameter: inhibition zone (IZ) (mm)

1) COC(=O)[C@]12Cc3c([nH]c4ccccc34)[C@@H](c3ccc(C)cc3)N1[C@@H]1c3ccccc3OC[C@@H]1C2: 12
2) COC(=O)[C@]12Cc3c([nH]c4ccccc34)[C@@H](c3ccccc3)N1[C@@H]1c3ccccc3OC[C@@H]1C2: 12
3) COC(=O)[C@]12Cc3c([nH]c4ccccc34)[C@@H](c3ccc(Cl)cc3)N1[C@@H]1c3ccccc3OC[C@@H]1C2: 22
4) COC(=O)[C@]12Cc3c([nH]c4ccccc34)[C@@H](c3cccc([N+](=O)[O-])c3)N1[C@@H]1c3c(ccc4ccccc34)OC[C@@H]1C2: 20
5) COC(=O)[C@]12Cc3c([nH]c4ccccc34)[C@@H](c3ccc(OC)cc3)N1[C@@H]1c3c(ccc4ccccc34)OC[C@@H]1C2: 12
6) COC(=O)[C@@]1(Cc2c[nH]c3ccccc23)C[C@H]2COc3ccc4ccccc4c3[C@H]2N1: 14
7) COC(=O)[C@]12Cc3c([nH]c4ccccc34)[C@@H](c3ccc(Cl)cc3)N1[C@@H]1c3c(ccc4ccccc34)OC[C@@H]1C2: 16
8) COC(=O)[C@]12Cc3c([nH]c4ccccc34)[C@@H](c3ccc(OC)cc3)N1[C@@H]1c3ccccc3OC[C@@H]1C2: 11
9) COC(=O)[C@]12Cc3c([nH]c4ccccc34)[C@@H](c3ccccc3)N1[C@@H]1c3c(ccc4ccccc34)OC[C@@H]1C2: 13
10) COC(=O)[C@]12Cc3c([nH]c4ccccc34)[C@@H](c3cccc([N+](=O)[O-])c3)N1[C@@H]1c3ccccc3OC[C@@H]1C2: 24
11) COC(=O)[C@]12Cc3c([nH]c4ccccc34)[C@@H](c3ccc(C)cc3)N1[C@@H]1c3c(ccc4ccccc34)OC[C@@H]1C2: 14
12) COC(=O)[C@@]1(Cc2c[nH]c3ccccc23)C[C@H]2COc3ccccc3[C@H]2N1: 15
13) CN(C)[C@@H]1C(O)=C(C(N)=O)C(=O)[C@@]2(O)C(O)=C3C(=O)c4c(O)cccc4[C@@](C)(O)[C@H]3C[C@@H]12 [TETRACYCLINE]: 26

----------
The following compounds are listed with their measured MIC values.
# System: Fusarium oxysporum
# method_notes: Antifungal activity against Fusarium oxysporum
# Type: functional
parameter: MIC (µg/mL)

1. COC(=O)[C@]12Cc3c([nH]c4ccccc34)[C@@H](c3ccc(Cl)cc3)N1[C@@H]1c3c(ccc4ccccc34)OC[C@@H]1C2: 90
2. COC(=O)[C@@]1(Cc2c[nH]c3ccccc23)C[C@H]2COc3ccccc3[C@H]2N1: 75
3. COC(=O)[C@@]1(Cc2c[nH]c3ccccc23)C[C@H]2COc3ccc4ccccc4c3[C@H]2N1: 85
4. COC(=O)[C@]12Cc3c([nH]c4ccccc34)[C@@H](c3ccc(C)cc3)N1[C@@H]1c3ccccc3OC[C@@H]1C2: 110
5. COC(=O)[C@]12Cc3c([nH]c4ccccc34)[C@@H](c3ccc(OC)cc3)N1[C@@H]1c3ccccc3OC[C@@H]1C2: 35
6. COC(=O)[C@]12Cc3c([nH]c4ccccc34)[C@@H](c3ccc(Cl)cc3)N1[C@@H]1c3ccccc3OC[C@@H]1C2: 70
7. COC(=O)[C@]12Cc3c([nH]c4ccccc34)[C@@H](c3cccc([N+](=O)[O-])c3)N1[C@@H]1c3c(ccc4ccccc34)OC[C@@H]1C2: 35
8. COC(=O)[C@]12Cc3c([nH]c4ccccc34)[C@@H](c3ccccc3)N1[C@@H]1c3c(ccc4ccccc34)OC[C@@H]1C2: 30
9. COC(=O)[C@]12Cc3c([nH]c4ccccc34)[C@@H](c3cccc([N+](=O)[O-])c3)N1[C@@H]1c3ccccc3OC[C@@H]1C2: 90

----------
# System: Bacillus subtilis
# method_notes: Antimicrobial activity against Bacillus subtilis at 75 ug/ml by agar diffusion assay
# Format: functional
parameter: inhibition zone (IZ) (mm)

1) COC(=O)[C@@]1(Cc2c[nH]c3ccccc23)C[C@H]2COc3ccccc3[C@H]2N1: 20
2) COC(=O)[C@]12Cc3c([nH]c4ccccc34)[C@@H](c3ccccc3)N1[C@@H]1c3c(ccc4ccccc34)OC[C@@H]1C2: 20
3) COC(=O)[C@]12Cc3c([nH]c4ccccc34)[C@@H](c3ccccc3)N1[C@@H]1c3ccccc3OC[C@@H]1C2: 20

----------
# Tested on: Radical scavenging activity
# method_notes: Antioxidant activity assessed as DPPH free radical scavenging activity at 1000 ug by spectrophotometer
# Format: functional
parameter: Activity (%)

1) O=C1O[C@H]([C@@H](O)CO)C(O)=C1O: 99
2) COC(=O)[C@]12Cc3c([nH]c4ccccc34)[C@@H](c3ccc(C)cc3)N1[C@@H]1c3ccccc3OC[C@@H]1C2: 73
3) COC(=O)[C@]12Cc3c([nH]c4ccccc34)[C@@H](c3ccc(OC)cc3)N1[C@@H]1c3c(ccc4ccccc34)OC[C@@H]1C2: 81
4) COC(=O)[C@]12Cc3c([nH]c4ccccc34)[C@@H](c3cccc([N+](=O)[O-])c3)N1[C@@H]1c3c(ccc4ccccc34)OC[C@@H]1C2: 67

----------
# Test system: Klebsiella pneumoniae
# method_notes: Antimicrobial activity against Klebsiella pneumoniae at 100 ug/ml by agar diffusion assay
# Format: functional
parameter: inhibition zone (IZ)

1. COC(=O)[C@]12Cc3c([nH]c4ccccc34)[C@@H](c3ccccc3)N1[C@@H]1c3c(ccc4ccccc34)OC[C@@H]1C2: 24 mm
2. COC(=O)[C@@]1(Cc2c[nH]c3ccccc23)C[C@H]2COc3ccccc3[C@H]2N1: 23 mm
3. COC(=O)[C@]12Cc3c([nH]c4ccccc34)[C@@H](c3ccc(Cl)cc3)N1[C@@H]1c3c(ccc4ccccc34)OC[C@@H]1C2: 25 mm
4. COC(=O)[C@]12Cc3c([nH]c4ccccc34)[C@@H](c3ccc(OC)cc3)N1[C@@H]1c3ccccc3OC[C@@H]1C2: 20 mm
5. CN(C)[C@@H]1C(O)=C(C(N)=O)C(=O)[C@@]2(O)C(O)=C3C(=O)c4c(O)cccc4[C@@](C)(O)[C@H]3C[C@@H]12 [TETRACYCLINE]: > 40 mm
6. COC(=O)[C@]12Cc3c([nH]c4ccccc34)[C@@H](c3ccc(C)cc3)N1[C@@H]1c3ccccc3OC[C@@H]1C2: 19 mm
7. COC(=O)[C@]12Cc3c([nH]c4ccccc34)[C@@H](c3ccccc3)N1[C@@H]1c3ccccc3OC[C@@H]1C2: 26 mm
8. COC(=O)[C@]12Cc3c([nH]c4ccccc34)[C@@H](c3cccc([N+](=O)[O-])c3)N1[C@@H]1c3c(ccc4ccccc34)OC[C@@H]1C2: 27 mm

----------
# System: Pseudomonas aeruginosa
# method_notes: Antimicrobial activity against Pseudomonas aeruginosa at 75 ug/ml by agar diffusion assay
# Format: functional
parameter: inhibition zone (IZ) (mm)

1) COC(=O)[C@]12Cc3c([nH]c4ccccc34)[C@@H](c3ccc(Cl)cc3)N1[C@@H]1c3c(ccc4ccccc34)OC[C@@H]1C2: 20
2) COC(=O)[C@@]1(Cc2c[nH]c3ccccc23)C[C@H]2COc3ccc4ccccc4c3[C@H]2N1: 20
3) COC(=O)[C@]12Cc3c([nH]c4ccccc34)[C@@H](c3ccccc3)N1[C@@H]1c3ccccc3OC[C@@H]1C2: 20
